- System: NCC-MFS5-C1
- assay notes: cell viability relative to DMSO control; higher = less growth inhibition
- condition context: 10 µM; treatment time: 3 days
Structures can show the parent of a compound that is named as a salt.
Overview of recorded cell viability for various molecules
# number then unit; no other words

Guide cases for cell viability, answers given:
{"molecule": "N.N.[Cl][Pt][Cl] [Cisplatin]", "readout name": "cell viability", "value measured": "79.1%"}
{"molecule": "Cc1c(N)nc(C(CC(N)=O)NCC(N)C(N)=O)nc1C(=O)NC(C(=O)NC(C)C(O)C(C)C(=O)NC(C(=O)NCCc1nc(-c2nc(C(=O)NCCC[S+](C)C)cs2)cs1)C(C)O)C(O[C@@H]1O[C@@H](CO)[C@@H](O)[C@H](O)[C@@H]1O[C@H]1O[C@H](CO)[C@@H](O)[C@H](OC(N)=O)[C@@H]1O)c1cnc[nH]1 (stereo partly drawn) [Bleomycin Sulfate]", "readout name": "cell viability", "value measured": "78.3%"}

Then this molecule:
Problem: Fill in cell viability for O=P1(NCCCl)OCCCN1CCCl (stereo not drawn) [Ifosfamide] tested with NCC-MFS5-C1.
Solution: 79.9%
